Can you tell me IC50 for the items I'm about to list?
- system-tested: TGFβ1 (transforming growth factor β1)
- assay-comment: BioVeris ECL competition assay with a labeled competitor; legend: ++ = IC50 about 10 - 50 µM

- substance: "WTQ-BBIt-Q-TGF (BBIt-A13I-L29P-F50T-V52A with the TGFβ1 binding peptide WTQ WTQHIHN) (designed binder)"
  system-tested: "TGFβ1 (transforming growth factor β1)"
  property-label: "IC50"
  meas-value: "10 to 50 µM"

Let us move to another entry and its IC50.
Report IC50 for PEN3-Q-BBIt-TGF-A40L-F50N (BBIt-A40L-F50N with the TGFβ1 binding peptide PEN3 PENINVLP) (designed binder) please. 10 to 50 µM

---

Can you tell me pIC50 for the items I'm about to list?
- system-tested: VEGF (vascular endothelial growth factor) (UniProt P15692)
- Sequence (P15692 other isoform, or with tags, fused parts or gaps limits assumed): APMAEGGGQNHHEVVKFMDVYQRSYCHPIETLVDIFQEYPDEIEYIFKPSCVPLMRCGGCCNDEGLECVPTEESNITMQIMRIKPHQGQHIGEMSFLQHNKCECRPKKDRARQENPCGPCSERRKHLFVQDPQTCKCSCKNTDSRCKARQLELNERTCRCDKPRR
- assay-comment: BioVeris ECL competition assay with a labeled competitor; legend: +++ = IC50 about 2 - 10 µM
pIC50: −log10 of the molar value.

Reference set (2 entries):
- substance: "BBIt with the VEGF-binding peptide VegKD (KYDLYWW) in the chymotrypsin loop (designed binder)"
  system-tested: "VEGF (vascular endothelial growth factor) (UniProt P15692)"
  pIC50: "5.00 to 5.70"
- substance: "BBIt-VEGT (BBIt with the VEGF-binding peptide VegT TLWKSYW in the chymotrypsin loop) (designed binder)"
  system-tested: "VEGF (vascular endothelial growth factor) (UniProt P15692)"
  pIC50: "5.00 to 5.70"

Let us move to another entry and its pIC50.
Report pIC50 for BBIt-VEGK (BBIt with the VEGF-binding peptide VegK KYYLYWW in the chymotrypsin loop) (designed binder) please. 5.00 to 5.70
